Measurement record for UniProt O75116; quantity recorded: IC50.

* NC(CC(=O)N1CCc2c([nH]c3ccccc23)C1c1cccc(Cl)c1)c1ccc(C(=O)Nc2ccncc2)cc1 (centres undefined) | 500 to 5000 nM
* NC(CC(=O)N1CCN(c2ccccc2)CC1)c1ccc(C(=O)Nc2ccncc2)cc1 (centres undefined) | < 500 nM
* N[C@H](CC(=O)N1CCC[C@H]1c1cccc(F)c1)c1ccc(C(=O)Nc2ccncc2)cc1 | < 500 nM
* N[C@H](CC(=O)N1CCC[C@@H]1c1cccc(F)c1)c1ccc(C(=O)Nc2ccncc2)cc1 | < 500 nM
* COC(=O)c1ccc(C2CCCCN2C(=O)CC(N)c2ccc(C(=O)Nc3ccncc3)cc2)cc1 (centres undefined) | < 500 nM

**Q:** I'm curious: which IC50 was measured for NC(CNS(=O)(=O)c1ccccc1Cl)c1ccc(C(=O)Nc2ccncc2)cc1 (centres undefined) tested on UniProt O75116?
**A:** < 500 nM

**Q:** I'm curious: which IC50 was measured for NC(CC(=O)N1CCOCC1)c1ccc(C(=O)Nc2ccncc2)cc1 (centres undefined) tested on UniProt O75116?
**A:** < 500 nM

**Q:** I'm curious: which IC50 was measured for CN(Cc1ccccc1)C(=O)C(N)c1ccc(C(=O)Nc2ccncc2)cc1 (centres undefined) tested on UniProt O75116?
**A:** < 500 nM

**Q:** I'm curious: which IC50 was measured for CN(C)CCNC(=O)C(N)c1ccc(C(=O)Nc2ccncc2)cc1 (centres undefined) tested on UniProt O75116?
**A:** 500 to 5000 nM

====

pIC50: −log10 of the molar value.
Measurement record for UniProt:O75116; quantity recorded: pIC50.

As a guide, the following entries are already answered.
• Cc1ccc(S(=O)(=O)NCC(N)c2ccc(C(=O)Nc3ccncc3)cc2)cc1 (stereo not given) = > 6.30
• NC(CNS(=O)(=O)c1ccc(F)cc1)c1ccc(C(=O)Nc2ccncc2)cc1 (stereo not given) = > 6.30
• NC(CC(=O)N1CCc2c(Cl)cccc2C1)c1ccc(C(=O)Nc2ccncc2)cc1 (stereo not given) = > 6.30
• NC(c1ccc(C(=O)Nc2ccncc2)cc1)C1CCCN1S(=O)(=O)c1ccccc1Cl (stereo not given) = 5.30 to 6.30

**Q:** I'm curious: which pIC50 was measured for COc1ccc(S(=O)(=O)NCC(N)c2ccc(C(=O)Nc3ccncc3)cc2)cc1OC (stereo not given) tested on UniProt:O75116?
**A:** > 6.30

**Q:** I'm curious: which pIC50 was measured for COc1ccc(CN2CCN(C(=O)CC(N)c3ccc(C(=O)Nc4ccncc4)cc3)CC2)cc1 (stereo not given) tested on UniProt:O75116?
**A:** 5.30 to 6.30

**Q:** I'm curious: which pIC50 was measured for NC(CC(=O)N1CCCC1c1cccc(F)c1)c1ccc(C(=O)Nc2ccncc2)cc1 (stereo not given) tested on UniProt:O75116?
**A:** > 6.30

**Q:** I'm curious: which pIC50 was measured for NC(C(=O)N1CCN(CCO)CC1)c1ccc(C(=O)Nc2ccncc2)cc1 (stereo not given) tested on UniProt:O75116?
**A:** 5.30 to 6.30

**Q:** I'm curious: which pIC50 was measured for NC(C(=O)N1CCN(Cc2ccc(F)cc2)CC1)c1ccc(C(=O)Nc2ccncc2)cc1 (stereo not given) tested on UniProt:O75116?
**A:** 5.30 to 6.30

**Q:** I'm curious: which pIC50 was measured for COCC(C)NC(=O)C(N)c1ccc(C(=O)Nc2ccncc2)cc1 (stereo not given) tested on UniProt:O75116?
**A:** 5.30 to 6.30

====

Biological target: ROCK2 (human) (UniProt O75116)
Sequence (O75116 whole entry, looked up): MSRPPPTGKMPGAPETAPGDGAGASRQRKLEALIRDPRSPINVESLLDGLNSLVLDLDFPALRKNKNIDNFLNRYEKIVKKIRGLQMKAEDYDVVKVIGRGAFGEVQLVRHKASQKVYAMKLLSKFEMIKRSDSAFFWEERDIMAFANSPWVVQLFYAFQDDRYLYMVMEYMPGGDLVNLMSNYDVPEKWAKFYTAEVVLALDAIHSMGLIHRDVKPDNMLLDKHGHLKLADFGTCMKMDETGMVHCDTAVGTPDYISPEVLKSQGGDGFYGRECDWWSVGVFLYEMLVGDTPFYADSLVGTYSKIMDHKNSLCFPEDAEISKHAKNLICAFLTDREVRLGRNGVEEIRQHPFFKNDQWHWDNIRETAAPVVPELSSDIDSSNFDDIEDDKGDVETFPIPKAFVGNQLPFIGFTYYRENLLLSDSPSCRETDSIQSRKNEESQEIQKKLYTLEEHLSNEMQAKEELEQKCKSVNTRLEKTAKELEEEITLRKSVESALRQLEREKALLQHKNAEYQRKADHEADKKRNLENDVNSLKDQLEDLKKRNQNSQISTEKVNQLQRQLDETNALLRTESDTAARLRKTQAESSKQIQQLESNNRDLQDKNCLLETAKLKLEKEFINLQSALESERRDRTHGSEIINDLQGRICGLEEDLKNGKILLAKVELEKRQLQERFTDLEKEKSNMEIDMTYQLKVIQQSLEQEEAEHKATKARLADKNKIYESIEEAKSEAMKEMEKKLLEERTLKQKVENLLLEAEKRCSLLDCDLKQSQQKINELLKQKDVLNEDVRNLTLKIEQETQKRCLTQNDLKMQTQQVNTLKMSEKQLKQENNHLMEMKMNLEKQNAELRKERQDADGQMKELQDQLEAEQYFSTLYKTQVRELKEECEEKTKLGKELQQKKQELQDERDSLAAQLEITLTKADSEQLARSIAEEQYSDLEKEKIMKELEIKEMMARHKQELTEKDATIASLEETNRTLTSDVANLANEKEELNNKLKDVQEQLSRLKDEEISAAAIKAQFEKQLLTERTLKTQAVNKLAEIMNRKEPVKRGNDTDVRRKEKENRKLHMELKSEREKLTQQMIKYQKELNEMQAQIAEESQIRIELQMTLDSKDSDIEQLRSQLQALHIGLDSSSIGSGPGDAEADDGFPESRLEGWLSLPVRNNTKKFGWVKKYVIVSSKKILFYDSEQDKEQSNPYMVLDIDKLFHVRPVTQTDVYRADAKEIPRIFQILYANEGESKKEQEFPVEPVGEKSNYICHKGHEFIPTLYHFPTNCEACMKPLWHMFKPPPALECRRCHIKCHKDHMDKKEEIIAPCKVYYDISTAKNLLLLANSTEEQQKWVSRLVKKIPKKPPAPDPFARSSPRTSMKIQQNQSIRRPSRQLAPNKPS
Assay: Inhibition of ROCK2 Kinase Activity
Reported endpoint: IC50

As a guide, the following entries are already answered.
• COc1cccc(C2CCCCN2C(=O)CC(N)c2ccc(C(=O)Nc3ccncc3)cc2)c1 (stereo unspecified) = < 500 nM
• NC(C(=O)N1CCN(Cc2ccccc2F)CC1)c1ccc(C(=O)Nc2ccncc2)cc1 (stereo unspecified) = 500 to 5000 nM
• CC1CN(C(=O)C(N)c2ccc(C(=O)Nc3ccncc3)cc2)CC(C)O1 (stereo unspecified) = 500 to 5000 nM
• COc1ccc(S(=O)(=O)N(C)C[C@@H](N)c2ccc(C(=O)Nc3ccncc3)cc2)cc1 = < 500 nM
• NC(CC(=O)N1CCCC1c1cccc(Cl)c1)c1ccc(C(=O)Nc2ccncc2)cc1 (stereo unspecified) = < 500 nM

**Q:** Query (molecule): NC(C(=O)NCCn1ccnc1)c1ccc(C(=O)Nc2ccncc2)cc1 (stereo unspecified) ; field requested: IC50
**A:** 500 to 5000 nM

**Q:** Query (molecule): COc1ccc(OC)c(S(=O)(=O)NCC(N)c2ccc(C(=O)Nc3ccncc3)cc2)c1 (stereo unspecified) ; field requested: IC50
**A:** < 500 nM

**Q:** Query (molecule): NC(C(=O)N1CCC(Cc2ccccc2)CC1)c1ccc(C(=O)Nc2ccncc2)cc1 (stereo unspecified) ; field requested: IC50
**A:** 500 to 5000 nM

**Q:** Query (molecule): NC(C(=O)NC1CCN(Cc2ccccc2)CC1)c1ccc(C(=O)Nc2ccncc2)cc1 (stereo unspecified) ; field requested: IC50
**A:** 500 to 5000 nM

**Q:** Query (molecule): NC(c1ccc(C(=O)Nc2ccncc2)cc1)C1CCCN1S(=O)(=O)c1ccc(F)cc1 (stereo unspecified) ; field requested: IC50
**A:** 500 to 5000 nM

**Q:** Query (molecule): Cc1ccc(CN2CCC(NC(=O)C(N)c3ccc(C(=O)Nc4ccncc4)cc3)CC2)s1 (stereo unspecified) ; field requested: IC50
**A:** 500 to 5000 nM

All figures here come from the Kinase Knowledgebase extract (Sharma et al. 2016).
